# assay overview: method code SF-CR+AS, from DOI: 10.1016/0003-9861(68)90547-x, PMID: 5677592
value kind: logP

>>> print(df.to_string())
                                   compound  value_kind  obs_value
0  Nc1ccc(O[C@@H]2O[C@H](CO)[C@@H](O)[C@H](O)[C@H]2O)cc1        logP      -2.67
1  Cc1cc(C)cc(O[C@@H]2O[C@H](CO)[C@@H](O)[C@H](O)[C@H]2O)c1        logP       0.26
2  OC[C@H]1O[C@@H](Oc2ccc(I)cc2)[C@H](O)[C@@H](O)[C@@H]1O        logP       0.75
3  OCc1ccccc1O[C@@H]1O[C@H](CO)[C@@H](O)[C@H](O)[C@H]1O        logP      -1.22
4  Cc1ccc(C(C)C)c(O[C@@H]2O[C@H](CO)[C@@H](O)[C@H](O)[C@H]2O)c1        logP       1.07
5  OC[C@H]1O[C@@H](Oc2cccc(C(F)(F)F)c2)[C@H](O)[C@@H](O)[C@@H]1O        logP       0.49
6  Cc1ccccc1O[C@@H]1O[C@H](CO)C(O)[C@H](O)[C@H]1O (stereo in doubt)        logP      -0.16
7  OC[C@H]1O[C@@H](Oc2ccccc2)[C@H](O)[C@@H](O)[C@@H]1O        logP      -0.71
8  O=[N+]([O-])c1ccccc1O[C@@H]1O[C@H](CO)[C@@H](O)[C@H](O)[C@H]1O        logP      -0.78
9  COc1ccc(O[C@@H]2O[C@H](CO)[C@@H](O)[C@H](O)[C@H]2O)cc1        logP      -0.73
